# conditionContext: 363.15 K; 101.33 kPa; Liquid; Concentric cylinders viscometry
observationType: viscosity (mPa·s)

>>> df
                                   compound  unitspec  experimentalresult
0  CCCCCCCCCCCCCCCCCC(=O)OC [methyl octadecanoate]     mPa·s               1.922
1  CCCCCCCC/C=C\CCCCCCCC(=O)OCC [ethyl (Z)-9-octadeceneoate]     mPa·s               1.702
2  CCCCCCCCCCCCCCCC(=O)OCC [ethyl hexadecanoate]     mPa·s               1.623
3       CCCCCCCCCC(=O)OC [methyl decanoate]     mPa·s              0.7421
4  CCCCCCCCCCCCCCCC(=O)OC [methyl hexadecanoate]     mPa·s                1.55
5  CCCCCCCCCCCCCCCCCC(=O)OCC [ethyl octadecanoate]     mPa·s               1.978
